Below is a list of entries, each paired with its recorded Ki value.
# Target Under Test: human kisspeptin receptor (KISS1R) (human), Q969F8
# Sequence (Q969F8 whole entry): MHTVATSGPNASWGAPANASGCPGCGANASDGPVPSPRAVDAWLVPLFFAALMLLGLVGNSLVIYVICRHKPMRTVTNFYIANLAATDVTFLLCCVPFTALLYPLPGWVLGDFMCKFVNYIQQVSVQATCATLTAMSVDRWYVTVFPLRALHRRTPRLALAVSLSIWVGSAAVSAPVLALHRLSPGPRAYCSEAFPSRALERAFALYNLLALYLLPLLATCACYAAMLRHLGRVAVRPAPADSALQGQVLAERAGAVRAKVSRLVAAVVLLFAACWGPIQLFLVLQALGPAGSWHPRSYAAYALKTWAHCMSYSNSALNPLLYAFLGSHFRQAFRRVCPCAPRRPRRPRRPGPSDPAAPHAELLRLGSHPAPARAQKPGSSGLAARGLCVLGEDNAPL
# Protocol: radioligand competition, hKISS1R membranes; legend: A is <10 nM
Numbered stars: 1 amine (or outer) side, 2 acyl side, 3 side chain; on linkers, the order of the positions; unused ones are H or OH. Square brackets hold non-standard residues; d marks the D form. * marks the point of attachment. X2 = 4‑amino‑1‑((3-fluoro-4-methylbenzyl)glycyl)piperidine‑4‑carboxylic acid, Cc1ccc(CN(CC(=O)N2CCC(N[*:1])(C(=O)[*:2])CC2)[*:3])cc1F; X6 = 3‑(2-(2-(3-(p-tolyl)propanamido)ethoxy)ethoxy)propanoyl, Cc1ccc(CCC(=O)NCCOCCOCCC(=O)*)cc1; DOTA = O=C(O)CN1CCN(CC(=O)O)CCN(CC(=O)*)CCN(CC(=O)O)CC1; Api(1-amidino) = N=C(N)N1CCC(N)(C(=O)O)CC1; Ahx = NCCCCCC(=O)O; azaGly = NNC(=O)O

Example binders with recorded Ki:
Binder	Endpoint Value
{DOTA-Ahx}-F[azaGly]L[X2]W-NH2 (SMILES Cc1ccc(CNCC(=O)N2CCC(NC(=O)[C@H](CC(C)C)NC(=O)NNC(=O)[C@H](Cc3ccccc3)NC(=O)CCCCCNC(=O)CN3CCN(CC(=O)O)CCN(CC(=O)O)CCN(CC(=O)O)CC3)(C(=O)N[C@@H](Cc3c[nH]c4ccccc34)C(N)=O)CC2)cc1F) [Compound 2]	< 10 nM
{DOTA-Ahx}-ENTF[azaGly]L[X2]W-NH2 (SMILES Cc1ccc(CNCC(=O)N2CCC(NC(=O)[C@H](CC(C)C)NC(=O)NNC(=O)[C@H](Cc3ccccc3)NC(=O)[C@@H](NC(=O)[C@H](CC(N)=O)NC(=O)[C@H](CCC(=O)O)NC(=O)CCCCCNC(=O)CN3CCN(CC(=O)O)CCN(CC(=O)O)CCN(CC(=O)O)CC3)[C@@H](C)O)(C(=O)N[C@@H](Cc3c[nH]c4ccccc34)C(N)=O)CC2)cc1F) [Compound 238]	< 10 nM

Let's switch to this binder now.
Which measured Ki value corresponds to X6-[dY][dK](DOTA)NTF[azaGly]L[Api(1-amidino)]W-NH2 (SMILES Cc1ccc(CCC(=O)NCCOCCOCCC(=O)N[C@H](Cc2ccc(O)cc2)C(=O)N[C@H](CCCCNC(=O)CN2CCN(CC(=O)O)CCN(CC(=O)O)CCN(CC(=O)O)CC2)C(=O)N[C@@H](CC(N)=O)C(=O)N[C@H](C(=O)N[C@@H](Cc2ccccc2)C(=O)NNC(=O)N[C@@H](CC(C)C)C(=O)NC2(C(=O)N[C@@H](Cc3c[nH]c4ccccc34)C(N)=O)CCN(C(=N)N)CC2)[C@@H](C)O)cc1) [Compound 338] ?
< 10 nM
